Target: HA of H7N3 A/NIBRG/60 (A/mallard/NL/12/00) (influenza A virus)
Test: cell-based or functional assay
measured-endpoint: VNA titer (nM)

{"columns": ["binder", "result-modifier", "measured-value"],
 "data": [
  ["SD1048 (VHH) VHH: EVQLVESGGGVVQPGGSLRLSCVASGRTSSMYSIGWFRQAPGKEREFVAVIGWYSGRTFYTDSMKGRFTISRDNARNTVYLQMNSLKPEDTAVYYCAAANGPLRLSNQADYWGQGTQVTVSS", "=", 20.6],
  ["SD1034 (VHH) VHH: EVQLVESGGGLVQAGGSLRLSCAASGTIFGIRVNTMGWYRQAPGEQRELVATITRSGGTNYADSVKDRFTISGDFAKDTVYLQMMHLKPEDTAVYYCNGRWALTDYWGQGTQVTVSS", ">", 1000],
  ["SD1073 (VHH) VHH: EVQLVESGGGLVQAGGSLRLSCAASGSAFSIAAMGWYRQAPGKQRELVATITTGGSTNYADSVKGRFTISRDNSKNTAYLQMNSLKPEDTAVYYCTAKSVVAETFGDLYNYWGQGTQVTVSS", "=", 135]
]}
